Test system: NCI-H226 lung
Test: NCI tumour cell line growth inhibition, 48 h; in the data active = GI50 below about 0.43 µM; inactive = the rest
Choose the fitting class; nothing outside T for active, F for inactive is accepted.

I'd appreciate the recorded outcome for Nc1nc2c(ccc3ccccc32)s1 from this test.
F

I'd appreciate the recorded outcome for CCOc1ccc(C(C)=O)cc1NC(=O)c1cccc(-c2nnn(CC)n2)c1 from this test.
F

I'd appreciate the recorded outcome for COc1ccccc1C1C(C#N)=C(N)Oc2cc(O)ccc21 (centres undefined) from this test.
F

I'd appreciate the recorded outcome for COc1ccc2c(c1)O/C(=C\c1cccc(OCC(=O)Nc3nc(C)c(C)s3)c1)C2=O from this test.
F

I'd appreciate the recorded outcome for Cc1cn2c(/C=N/N=C(N)N)c(-c3ccncc3)nc2s1 from this test.
F

I'd appreciate the recorded outcome for Nc1ccc(-c2ccc3ncc4ccc(=O)n(-c5cccc(C(F)(F)F)c5)c4c3c2)cn1 from this test.
T

I'd appreciate the recorded outcome for CC1=C(C#N)C(/C=C(\Cl)c2ccc(F)cc2)C(C#N)=C(C)N1 from this test.
F

I'd appreciate the recorded outcome for CCN(CC)c1ccc2nc3ccc(N=Nc4ccc(O)cc4)cc3[n+](-c3ccccc3)c2c1 from this test.
F

I'd appreciate the recorded outcome for O=C(CN(/C=C/C(=O)C(F)(F)F)c1ccccc1)c1ccc(Cl)cc1 from this test.
F

I'd appreciate the recorded outcome for Cc1noc(C)c1-c1cnc2c(-c3ccc(C(=O)O)cc3)cn([C@@H](C)c3ccccn3)c2c1 from this test.
F

I'd appreciate the recorded outcome for COc1cc(CN(c2ccc(C)cc2)C2OC(=O)c3ccccc32)cc(OC)c1OC (centres undefined) from this test.
F

I'd appreciate the recorded outcome for COc1cc(-c2nccc3cc4c(cc23)OCO4)cc(OC)c1OC from this test.
F

I'd appreciate the recorded outcome for COc1cccc(NC(=O)c2sc3nc4c(cc3c2N)C(O)CCC4)c1 (centres undefined) from this test.
F

I'd appreciate the recorded outcome for COc1ccc2nc3cccc([N+](=O)[O-])c3c(NCCNCCN(C)C)c2c1 from this test.
F

I'd appreciate the recorded outcome for CCc1nc2cc(/C=C/C(=O)NO)ccc2c(=O)n1CCc1ccc(OC)cc1 from this test.
F

I'd appreciate the recorded outcome for O=C(Oc1ccccc1)C(Br)C(Br)c1ccccc1 (centres undefined) from this test.
F

I'd appreciate the recorded outcome for CCOC(=O)C#Cc1c(C(=O)OCC)nnn1[C@@H]1O[C@H](CO)[C@H]2OC3(CCCCC3)O[C@H]21 from this test.
F

I'd appreciate the recorded outcome for Cc1ccc(O)c(NC2=C(Cl)C(=O)N(Cc3ccccc3)C2=O)c1 from this test.
F

I'd appreciate the recorded outcome for C[C@H](NC(=O)c1c(C(F)F)nn(C)c1Oc1cccc(C(F)(F)F)c1)c1ccc(C(=O)O)cc1 from this test.
F

----------
Test system: 786-0 renal
Test: NCI tumour cell line growth inhibition, 48 h
readout.label: TGI (µM)
Reply numerically in µM, unit not repeated.

786-0 renal assay, compound CC/C(Cc1ccccc1)=C(/c1ccc(O)cc1)c1ccc(OCCN2CCCC2)cc1 , recorded TGI = 3.22

786-0 renal assay, compound O=C(Nc1ccc2cc3ccccc3cc2c1)c1cc2c(cc1Cl)Sc1nccn1S2(=O)=O , recorded TGI = 30

786-0 renal assay, compound COC(=O)[C@H](Cc1c[nH]c2ccccc12)NC(=O)c1ccccc1I , recorded TGI = 34.6

786-0 renal assay, compound CCOC(=O)C#Cc1c(C(=O)OCC)nnn1[C@@H]1O[C@H](CO)[C@H]2OC3(CCCCC3)O[C@H]21 , recorded TGI = 8.62

----------
So I've got a bunch of molecules here, and I need their GI50 values.
System: PC-3 prostate
Experiment: NCI tumour cell line growth inhibition, 48 h

Sample CN1CCN(CCCOc2cccc3nc(Nc4ccc(F)c(F)c4)ccc23)CC1 ; GI50 observed: 3.83 µM

Sample C[C@H](NC(=O)c1c(C(F)F)nn(C)c1Oc1cccc(C(F)(F)F)c1)c1ccc(C(=O)O)cc1 ; GI50 observed: > 100 µM

Sample Cc1cn2c(/C=N/N=C(N)N)c(-c3ccncc3)nc2s1 ; GI50 observed: 18.8 µM

----------
Tested on: M14 melanoma
Test: NCI tumour cell line growth inhibition, 48 h; in the data active = GI50 below about 0.43 µM; inactive = the rest
Choose the fitting class; nothing outside 1 = active, 0 = inactive is accepted.

I'd appreciate the recorded outcome for COc1cc2nc(-c3cccc4cccnc34)nc(NC3CCN(Cc4ccccc4)CC3)c2cc1OC from this test.
0

I'd appreciate the recorded outcome for CN1CCN(CCCOc2cccc3nc(Nc4ccc(F)c(F)c4)ccc23)CC1 from this test.
0

I'd appreciate the recorded outcome for COc1ccc(-c2n[nH]nc2-c2cc(OC)c3c(c2)OCO3)cc1 from this test.
1

I'd appreciate the recorded outcome for COc1cc(Nc2ncnc(Nc3ccc4c(n3)NC(=O)C(C)(C)O4)n2)cc(OC)c1OC from this test.
0

I'd appreciate the recorded outcome for CC1=C(C#N)C(/C=C(\Cl)c2ccc(F)cc2)C(C#N)=C(C)N1 from this test.
0

I'd appreciate the recorded outcome for NC(CSC(c1ccccc1)(c1ccccc1)c1ccc(F)cc1)C(=O)O (stereo unspecified) from this test.
1

I'd appreciate the recorded outcome for COc1ccc(-c2nsc3c2NC(=O)CC3c2cccc(Cl)c2)cc1 (stereo unspecified) from this test.
0

I'd appreciate the recorded outcome for COc1ccc(-c2nn3ncccc3c2-c2ccnc(Nc3ccc4c(c3)OCCO4)n2)cc1 from this test.
0

I'd appreciate the recorded outcome for C=C1C(=O)O[C@H]2[C@H]1CC/C(COC(=O)NCCc1cccc(OC)c1)=C\CC[C@@]1(C)O[C@@H]21 from this test.
0

I'd appreciate the recorded outcome for c1cc[c]([Sn]([O]c2cccc3cccnc23)([O]c2cccc3cccnc23)[c]2ccccc2)cc1 from this test.
1

I'd appreciate the recorded outcome for Cn1cncc1-c1c(F)cncc1NC(=O)c1c(N)nn2cc(F)cnc12 from this test.
1

I'd appreciate the recorded outcome for COc1ccc2c(c1)O/C(=C\c1cccc(OCC(=O)Nc3nc(C)c(C)s3)c1)C2=O from this test.
1

I'd appreciate the recorded outcome for CCN(CC)c1ccc2nc3ccc(N=Nc4ccc(O)cc4)cc3[n+](-c3ccccc3)c2c1 from this test.
0

I'd appreciate the recorded outcome for Cc1noc(C)c1-c1cnc2c(-c3ccc(C(=O)O)cc3)cn([C@@H](C)c3ccccn3)c2c1 from this test.
0

I'd appreciate the recorded outcome for NCCOc1ncccc1/C=C1\c2ccccc2-c2ccc([N+](=O)[O-])cc21 from this test.
1

I'd appreciate the recorded outcome for COc1cc(CN(c2ccc(C)cc2)C2OC(=O)c3ccccc32)cc(OC)c1OC (stereo unspecified) from this test.
0

----------
So I've got a bunch of compounds here, and I need their TGI values.
Test system: NCI-H522 lung
Assay: NCI tumour cell line growth inhibition, 48 h

Sample C=Cc1c(C)c2cc3[nH]c(cc4nc(cc5nc(cc1[nH]2)C(C)=C5CCC(=O)N(CC)CC)C(CCC(=O)N(CC)CC)=C4C)c(C)c3C=C ; TGI observed: > 100 µM

Sample OC12c3ccccc3C1CCCCCC21OCCCO1 (configuration not stated) ; TGI observed: > 100 µM

Sample COc1ccc(C2C3=C(COC3=O)OC(C)(C)Oc3cc4c(cc32)OCO4)cc1OC (configuration not stated) ; TGI observed: > 73.8 µM

Sample CCc1nc2cc(/C=C/C(=O)NO)ccc2c(=O)n1CCc1ccc(OC)cc1 ; TGI observed: 4.66 µM

Sample C[C@H]1O[C@@H](C(C)(C)C)OC(=O)[C@@H]1C(OC(=O)c1ccccc1)c1cccc2ccccc12 (some centres not stated) ; TGI observed: > 100 µM

Sample COc1ccc(-c2nn3ncccc3c2-c2ccnc(Nc3ccc4c(c3)OCCO4)n2)cc1 ; TGI observed: 23 µM

Sample CC12CCC(CC1(Cl)Cl)C2 (configuration not stated) ; TGI observed: > 100 µM

----------
Tested on: SK-MEL-28 melanoma
Assay: NCI tumour cell line growth inhibition, 48 h
readout.label: TGI

Sample COc1cccc2cc(C(=O)NC34CC5CC(CC(C5)C3)C4)c(=N)oc12 ; TGI observed: > 100 µM

Sample CCOC(=O)C#Cc1c(C(=O)OCC)nnn1[C@@H]1O[C@H](CO)[C@H]2OC3(CCCCC3)O[C@H]21 ; TGI observed: 4.51 µM

Sample COC(=O)N/N=C(\C)C(CN(C)C)C(c1ccccc1)c1c(O)c2ccccc2oc1=O (stereo not given) ; TGI observed: > 100 µM

Sample O/N=C\C(=Nc1ccc(Cc2ccc(N=C(/C=N\O)NO)cc2)cc1)NO ; TGI observed: > 100 µM

Sample Cc1ccc(/S(Cc2ccccc2)=N\S(=O)(=O)c2ccc(C)cc2)cc1 (stereo not given) ; TGI observed: > 100 µM

----------
So I've got a bunch of compounds here, and I need their TGI values.
System: DU-145 prostate
Assay: NCI tumour cell line growth inhibition, 48 h

Sample C/C(O)=C(\C=NC(=S)c1ccncc1)C(=O)Nc1ccccc1C ; TGI observed: > 100 µM

Sample C[C@H](NC(=O)c1c(C(F)F)nn(C)c1Oc1cccc(C(F)(F)F)c1)c1ccc(C(=O)O)cc1 ; TGI observed: > 100 µM

Sample O=C(NC1(C(=O)O)CCCC1)c1ccccc1 ; TGI observed: > 100 µM

Sample C=CCCC(=O)C(=[N+]=[N-])C(=O)CCC(=O)c1ccccc1 ; TGI observed: > 10 µM

Sample Cn1cncc1-c1c(F)cncc1NC(=O)c1c(N)nn2cc(F)cnc12 ; TGI observed: 49.3 µM

Source: PubChem BioAssay (NCI)
